target: Glycogen synthase kinase-3 alpha (Homo sapiens); test: concentration-response blocking of human GSK3A – biochemical, luminescence, cell-free homogeneous, retest, dose response (AID 463203); conditions: GSK-3 alpha enzyme, ADP-Glo luminescence, 60 min
Active and inactive are the calls of the source.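 How the source made its calls: active means more than half of replicate measurements showing over 20% loss of kinase signal relative to plate controls; inconclusive means some but at most half of replicates over 20% loss; inactive means no replicate over 20% signal loss.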
Your response should consist of one outcome taken from active, inactive

Request: # lookup: test call for COc1ccc(-n2c(SCC(N)=O)nnc2-c2ccco2)cc1
Response: inactive

Request: # lookup: test call for Cc1cccc(N2CCN(C(=O)c3cc4c(=O)[nH]c5ccccc5c4n3C)CC2)c1C
Response: inactive

Request: # lookup: test call for CC(=O)Nc1ccc(OC(=O)CC2SC(=O)NC2=O)cc1 (stereo unspecified)
Response: inactive

Request: # lookup: test call for Cc1nccnc1Sc1ccccc1
Response: inactive

Request: # lookup: test call for N#Cc1sc2nc(-c3cccs3)cc(-c3ccccc3)c2c1N
Response: inactive

Request: # lookup: test call for Cc1ccnc(NC(=O)CCC(=O)N(CC(=O)NCc2ccccc2)Cc2ccccc2)c1
Response: active

Request: # lookup: test call for C/C(CC(=O)N(C(C)C)C(C)C)=N\NC(=O)COc1ccc(Br)cc1Br
Response: inactive

Request: # lookup: test call for Cn1c(SCC(=O)N/N=C/C=C/c2ccco2)nc2ccccc21
Response: inactive

Request: # lookup: test call for O=Cc1cc(N=Nc2ccc(S(=O)(=O)O)cc2)ccc1O
Response: inactive

Request: # lookup: test call for CCc1ccc(C2CC(c3cccc(Cl)c3)n3nc(N)nc3N2)cc1 (stereo unspecified)
Response: inactive

Request: # lookup: test call for CC1CCN(CCCNc2cc(NCCO)c([N+](=O)[O-])c3nonc23)CC1
Response: inactive

###

target: Glycogen synthase kinase-3 alpha (Homo sapiens) (UniProt P49840); assay: concentration-response blocking of human GSK3A – biochemical, luminescence, cell-free homogeneous, retest, dose response (AID 463203); details: GSK-3 alpha enzyme, ADP-Glo luminescence, 60 min
Sequence (P49840 whole entry, looked up): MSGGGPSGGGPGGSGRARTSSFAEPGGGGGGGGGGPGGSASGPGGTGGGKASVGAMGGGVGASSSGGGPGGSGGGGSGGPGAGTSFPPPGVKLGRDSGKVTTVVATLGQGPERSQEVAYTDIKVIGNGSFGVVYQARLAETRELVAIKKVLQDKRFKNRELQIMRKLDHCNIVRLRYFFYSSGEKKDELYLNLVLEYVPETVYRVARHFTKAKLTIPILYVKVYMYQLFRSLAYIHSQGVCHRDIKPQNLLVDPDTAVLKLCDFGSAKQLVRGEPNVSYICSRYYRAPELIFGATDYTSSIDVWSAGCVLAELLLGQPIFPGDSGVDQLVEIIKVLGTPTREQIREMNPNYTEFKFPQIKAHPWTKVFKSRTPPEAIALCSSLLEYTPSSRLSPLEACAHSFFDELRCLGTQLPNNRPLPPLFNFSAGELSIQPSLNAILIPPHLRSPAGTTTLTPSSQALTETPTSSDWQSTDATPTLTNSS
Active and inactive are the calls of the source.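 Rule for the calls: active = more than half of replicate measurements showing over 20% loss of kinase signal relative to plate controls; inconclusive = some but at most half of replicates over 20% loss; inactive = no replicate over 20% signal loss.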
Your response should consist of one outcome taken from 1.0 (active), 0.0 (inactive)

Request: # lookup: test call for COc1c(NC(C)=O)c2ccccc2c2ccccc12
Response: 0.0

Request: # lookup: test call for Cc1ccc(Cc2c(C)nc3nc(SCC(=O)NCCCN4CCCCCC4)nn3c2C)cc1
Response: 0.0

Request: # lookup: test call for CSc1ccc(/C=N/NC(=O)c2ccccc2Cl)cc1
Response: 0.0

Request: # lookup: test call for CN(c1ccccc1)c1nc(N)c([N+](=O)[O-])c(Nc2ccccc2F)n1
Response: 0.0

Request: # lookup: test call for CCOc1ccc(-c2c(C(=O)N/N=C(\C)c3cccnc3)nnn2-c2nonc2N)cc1
Response: 0.0

Request: # lookup: test call for Cc1ccc2nc(-c3ccccc3N)[nH]c2c1
Response: 0.0

Request: # lookup: test call for COc1ccc(-c2csc3nc(C)nc(N4CCC(C)CC4)c23)cc1OC
Response: 0.0

Request: # lookup: test call for Cc1ccc(Cn2cc(/C=N/Nc3ccc([N+](=O)[O-])cn3)c3ccccc32)cc1
Response: 0.0

Request: # lookup: test call for COc1ccc(/C=C2\Oc3cc(OCC(=O)N4CCC[C@H]4C(=O)O)ccc3C2=O)c(OC)c1OC
Response: 0.0

Request: # lookup: test call for COc1ccc(OC)c(/C=N/NC(=O)c2nnn(-c3nonc3N)c2-c2cccs2)c1
Response: 1.0

###

biological target: Glycogen synthase kinase-3 alpha (Homo sapiens); assay: concentration-response blocking of human GSK3A – biochemical, luminescence, cell-free homogeneous, retest, dose response (AID 463203); details: GSK-3 alpha enzyme, ADP-Glo luminescence, 60 min
Calls of active or inactive are those of the source.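 How the source made its calls: active means more than half of replicate measurements showing over 20% loss of kinase signal relative to plate controls; inconclusive means some but at most half of replicates over 20% loss; inactive means no replicate over 20% signal loss.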
Your response should consist of one outcome taken from active, inactive

Request: # lookup: test call for CC1(C)Cc2cccc(C(=O)Nc3ccncc3)c2O1
Response: active

Request: # lookup: test call for COc1ccc(C(=O)OCC(=O)Nc2c(C)n(C)n(-c3ccccc3)c2=O)cc1
Response: inactive

Request: # lookup: test call for O=C1NC(=Nc2ccccc2Cl)S/C1=C\c1cccc([N+](=O)[O-])c1O
Response: active

Request: # lookup: test call for Cc1ccc(N(Cc2ccc([N+](=O)[O-])cc2)C(=O)c2ccco2)cc1
Response: inactive

Request: # lookup: test call for COc1ccc(NC(=O)c2ccc(NCC3CCCO3)c([N+](=O)[O-])c2)cc1 (stereo not given)
Response: inactive

###

biological target: Glycogen synthase kinase-3 alpha (Homo sapiens) (UniProt P49840); assay: concentration-response blocking of human GSK3A – biochemical, luminescence, cell-free homogeneous, retest, dose response (AID 463203); details: GSK-3 alpha enzyme, ADP-Glo luminescence, 60 min
Activity calls are given as the source filed them.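 Rule for the calls: active = more than half of replicate measurements showing over 20% loss of kinase signal relative to plate controls; inconclusive = some but at most half of replicates over 20% loss; inactive = no replicate over 20% signal loss.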
Your response should consist of one outcome taken from YES = active, NO = inactive

Request: # lookup: test call for COc1ccc(C(=O)c2sc(Nc3ccccc3)c(C(=O)Nc3ccc(OC)c(OC)c3)c2N)cc1
Response: NO

Request: # lookup: test call for Cc1nc2sc(C(N)=O)c(N)c2c2c1CCCC2
Response: YES

Request: # lookup: test call for Cc1cc(O)c2c(-c3ccccc3)cc(=O)oc2c1
Response: NO

Request: # lookup: test call for CCOC(=O)c1cc(C(=O)OCC)c2cc(Br)ccc2n1
Response: NO

Request: # lookup: test call for COc1ccc(OC)c(C2CC(=O)N3CN(c4cccc(Cl)c4)CSC3=C2C#N)c1 (configuration not stated)
Response: NO

Request: # lookup: test call for CCCC(=O)NNC(=O)c1c(O)c2ccccc2[nH]c1=O
Response: NO

Request: # lookup: test call for Cc1ccc(C(=O)c2c(NC(=O)CSc3nnc(N)s3)sc3c2CCCC3)cc1
Response: NO

Request: # lookup: test call for CC(=O)Nc1ccc(C(=O)OCC(=O)Nc2c(C)n(C)n(-c3ccccc3)c2=O)cc1
Response: NO

Request: # lookup: test call for Cc1cccc(NC(=O)CSCc2nc3c(nnn3Cc3ccc(F)cc3)c(=O)[nH]2)c1C
Response: NO

Request: # lookup: test call for Cc1cc(C)c[n+](C2=C([O-])c3ccccc3C(=O)/C2=N\S(=O)(=O)c2cccs2)c1
Response: NO

Request: # lookup: test call for COc1cc(/C=N/NC(=O)c2nnn(-c3nonc3N)c2-c2cccs2)ccc1O
Response: YES

Request: # lookup: test call for Cc1cc(NC(=O)COC(=O)c2cc(S(=O)(=O)N3CCOCC3)ccc2N2CCCCC2)no1
Response: YES

Request: # lookup: test call for CCOC(=O)N1CCc2c(sc3nc4n(c(=O)c23)N=C(c2ccc(OC)cc2)CS4)C1
Response: NO

Request: # lookup: test call for CCN1/C(=C\C(C)=O)Sc2ccc(OC)cc21
Response: YES

Request: # lookup: test call for Cc1nc(SCCC(C)C)c([N+](=O)[O-])[nH]1
Response: NO

Request: # lookup: test call for COc1ccc(/C=C/c2nc3ccccc3n2C)cc1
Response: YES

Request: # lookup: test call for Cc1sc2ncnc(NCc3cccs3)c2c1C
Response: NO

Request: # lookup: test call for COc1ccc(-c2cc(=O)c3ccccc3o2)cc1
Response: NO

Request: # lookup: test call for Cc1nc(Nc2ccc(C(=O)O)cc2)nc(Nc2ccc(C(=O)O)cc2)c1[N+](=O)[O-]
Response: YES

Request: # lookup: test call for CCOC(=O)c1c(NC(=O)C2CC2)sc(C)c1CC
Response: NO

Request: # lookup: test call for Cc1ccc(N(C)C(=O)C2CCCN2S(=O)(=O)c2cccc3nsnc23)cc1 (configuration not stated)
Response: YES

Request: # lookup: test call for O=c1oc2cc(O)ccc2c2ccccc12
Response: NO

###

target: Glycogen synthase kinase-3 alpha (Homo sapiens); assay: concentration-response blocking of human GSK3A – biochemical, luminescence, cell-free homogeneous, retest, dose response (AID 463203); conditions: GSK-3 alpha enzyme, ADP-Glo luminescence, 60 min
Activity calls are given as the source filed them.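 How the source made its calls: active means more than half of replicate measurements showing over 20% loss of kinase signal relative to plate controls; inconclusive means some but at most half of replicates over 20% loss; inactive means no replicate over 20% signal loss.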
Your response should consist of one outcome taken from class 1 = active, class 0 = inactive

Request: # lookup: test call for Cc1ccnc(SCC(=O)Nc2sc3c(c2C#N)CCCC3)n1
Response: class 0

Request: # lookup: test call for CCc1cc2c(N3CCN(c4nnc(CC)s4)CC3)ncnc2s1
Response: class 1

Request: # lookup: test call for COC(=O)C1=C(C)Nc2ncnn2C1c1ccccn1 (configuration not stated)
Response: class 0

Request: # lookup: test call for COCc1nnc(NC(=O)CCN2C(=O)c3ccccc3C2=O)s1
Response: class 0

Request: # lookup: test call for O=[N+]([O-])c1cccnc1N1CCCNCC1
Response: class 0

Request: # lookup: test call for CCN1CCN(c2c(Cl)cccc2NC(=O)c2cccs2)CC1
Response: class 0

Request: # lookup: test call for O=C(NC1(C(F)(F)F)NC(=O)N(Cc2cccnc2)C1=O)c1ccncc1 (configuration not stated)
Response: class 0

Request: # lookup: test call for COc1ccc(Cn2nnc(C(=O)Nc3ccc(F)cc3)c2N)cc1
Response: class 0

Request: # lookup: test call for CCOc1ccc(NC(=O)N(C2CCCCC2)C(C)c2cccnc2)cc1 (configuration not stated)
Response: class 0

Request: # lookup: test call for N#CCCn1cc(/C=N/O)c(-c2ccccc2)n1
Response: class 0

Request: # lookup: test call for O=C1c2cnc3ncnn3c2CC2c3ccccc3CCN12 (configuration not stated)
Response: class 0

Request: # lookup: test call for Cc1cccc2cc(C#N)c(NCCNC(=S)NCCCN3CCOCC3)nc12
Response: class 0
